Reported MIC Pseudomonas aeruginosa ATCC 27853 values for a set of compounds
- System: Pseudomonas aeruginosa ATCC 27853
- Assay type: cell-based
Non-standard residues stand in square brackets, D forms with d. Residues, ends and D or L forms follow the SMILES beside them. dPhe(3,4-F2) = N[C@H](Cc1ccc(F)c(F)c1)C(=O)O; d2Nal = N[C@H](Cc1ccc2ccccc2c1)C(=O)O

compound	MIC Pseudomonas aeruginosa ATCC 27853, µg/mL
CC(=O)N[C@H](CCCCN)C(=O)N[C@H](CCCCN)C(=O)N[C@H](CC(C)C)C(=O)N[C@H](CC(C)C)C(=O)N[C@H](Cc1ccc(F)c(F)c1)C(=O)N[C@H](CCCNC(=N)N)C(=O)N[C@H](CC(C)C)C(=O)N[C@H](CCCCN)C(=O)N[C@H](Cc1ccc(F)c(F)c1)C(=O)N[C@H](CCCNC(=N)N)C(=O)N[C@H](CCCCN)C(N)=O [LV-25] (Ac-[dK][dK][dL][dL][dPhe(3,4-F2)][dR][dL][dK][dPhe(3,4-F2)][dR][dK]-NH2)	1
CC(=O)N[C@H](CCCNC(=N)N)C(=O)N[C@H](CCCCN)C(=O)N[C@H](CC(C)C)C(=O)N[C@H](CC(C)C)C(=O)N[C@H](Cc1ccc2ccccc2c1)C(=O)N[C@H](CCCCN)C(=O)N[C@H](CC(C)C)C(=O)N[C@H](CCCCN)C(=O)N[C@H](Cc1ccc2ccccc2c1)C(=O)N[C@H](CCCCN)C(=O)N[C@H](CCCNC(=N)N)C(N)=O [LV-18] (Ac-[dR][dK][dL][dL][d2Nal][dK][dL][dK][d2Nal][dK][dR]-NH2)	1
CC(=O)N[C@H](CCCNC(=N)N)C(=O)N[C@H](CCCCN)C(=O)N[C@H](CC(C)C)C(=O)N[C@H](CC(C)C)C(=O)N[C@H](Cc1ccccc1)C(=O)N[C@H](CCCNC(=N)N)C(=O)N[C@H](CC(C)C)C(=O)N[C@H](CCCCN)C(=O)N[C@H](Cc1ccccc1)C(=O)N[C@H](CCCNC(=N)N)C(=O)N[C@H](CCCCN)C(N)=O [LV-2] (Ac-[dR][dK][dL][dL][dF][dR][dL][dK][dF][dR][dK]-NH2)	1
